Where a name gives a salt, the structure may show the parent alone.
Property: melting point

Enquiry: I am curious: what melting point value has been reported for COc1ccc(S(=O)(=O)N(C)c2ccc3c(c2)OC(CN[C@H](C)c2ccccc2)CC3)cc1OC (stereo partly drawn) (as salt: HCl) ?
Return: 229 to 230 °C

Enquiry: I am curious: what melting point value has been reported for C[C@@H](NCC1CCc2ccc(N(C)S(=O)(=O)c3ccc(F)cc3)cc2O1)c1ccccc1 (stereo partly drawn) (as salt: HCl) ?
Return: 208 to 210 °C

Enquiry: I am curious: what melting point value has been reported for C[C@@H](NCC1CCc2ccc(N(C)S(=O)(=O)c3ccc(Cl)cc3)cc2O1)c1ccccc1 (stereo partly drawn) (as salt: HCl) ?
Return: 198 to 201 °C

Enquiry: I am curious: what melting point value has been reported for C[C@@H](NCC1CCc2ccc(N(C)S(=O)(=O)c3ccc(N)cc3)cc2O1)c1ccccc1 (stereo partly drawn) (as salt: HCl) ?
Return: 200 °C (dec.)

Enquiry: I am curious: what melting point value has been reported for C[C@@H](NCC1CCc2ccc(N(C)S(=O)(=O)c3cccc4ccccc34)cc2O1)c1ccccc1 (stereo partly drawn) (as salt: HCl) ?
Return: 245 to 246 °C

Enquiry: I am curious: what melting point value has been reported for C[C@@H](NCC1CCc2ccc(N(C)S(=O)(=O)c3ccccc3Br)cc2O1)c1ccccc1 (stereo partly drawn) (as salt: HCl) ?
Return: 199 to 201 °C
